test: protein stability index of a GFP-peptide fusion (GPS, HEK-293T) (PSI 1-6); higher = more stable; details: treatment: MLN4924 1 uM, 8 h; c terminus: a fixed tail appended;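 further: 24-mer peptide tiles fused after GFP, lentivirally expressed, FACS-sorted into six equal bins by GFP/DsRed ratio, decoded by Illumina sequencing, PSI is the read-weighted mean bin number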
So I've got a bunch of sequences here, and I need their protein stability index values.

Here is how some sequences turned out for protein stability index.
                        sequence_text           endpoint_label  observed_measurement
0  RSCAIVEDDGLQSAFTAAHELGHV [ADAMTS4]  protein stability index                  3.55
1     GFIKKFVLCPECENPETDLHVNPK [EIF5]  protein stability index                  3.29
2    MKKIKKLENDTISKQLTLEQLRRE [CCDC6]  protein stability index                  3.84
3  YLRFIVSRMKERAIDLNKKGKDNK [ZMYND11]  protein stability index                  2.05
4   EQLEAEAQALRQELERQRRLLGSV [PBXIP1]  protein stability index                  4.02
5   TILLDGQRVKLKLWDTSGQGRFCT [RAB40A]  protein stability index                  2.21
6     LRADQEKERKKREERERKRRKEEE [FAF2]  protein stability index                  5.35
7    TWWIMFLSTFSVPYFLFQHWATGY [SOAT1]  protein stability index                  2.77

Give protein stability index for each listed item.
1. SLPSPSSSGHQNRRFSSEDLEDPL [FBF1]
2. EPLMTNKLSETFLQIYQYVPKDQR [DLC1]
3. APRPGPPAGTPPPTARHFQEHPRQ [MOSPD3]
4. VENELMISYLMFLQILVYFSFMSW [FAM98B]
5. MGQKVTGGIKTVDMRDPTYRPLKQ [SPSB1]

Response:
5.46
3.47
4.86
3.14
4.01
